assay: Volume of distribution at steady state in iv dosed cynomolgus monkey; type: ADME, organism-based, Macaca fascicularis; conditions: in vivo, read-out: Vdss
observation-type: Vd (L/kg)

Some solved entries appear below for comparison.
C[C@@H](c1ccc(-c2ccc(=O)n(C)c2)cc1)N1CC[C@](CC(C)(C)O)(c2ccccc2)OC1=O    1.7
Cc1ccc(-c2ccc([C@H](C)N3CC[C@](CC(C)(C)O)(c4ccccc4)OC3=O)cc2)nn1    1.5

(1) Cc1ncc(-c2ccc([C@H](C)N3CC[C@](CC(C)(C)O)(c4ccccc4)OC3=O)cc2)cn1
(2) C[C@@H](c1ccc(-c2ccn(C)c(=O)c2)cc1)N1CC[C@](CC(C)(C)O)(c2ccccc2)OC1=O
Would you mind telling me which has the lower recorded Vd between 1 and 2 ? // caller expects the label of the chosen entry
1
(1: 1.7 L/kg, 2: 2.5 L/kg)

---

target: 3 beta-hydroxysteroid dehydrogenase/Delta 5-->4-isomerase type 2 (Homo sapiens); assay: Inhibition of 3beta-HSD2 (unknown origin)
Sequence (P26439 whole entry): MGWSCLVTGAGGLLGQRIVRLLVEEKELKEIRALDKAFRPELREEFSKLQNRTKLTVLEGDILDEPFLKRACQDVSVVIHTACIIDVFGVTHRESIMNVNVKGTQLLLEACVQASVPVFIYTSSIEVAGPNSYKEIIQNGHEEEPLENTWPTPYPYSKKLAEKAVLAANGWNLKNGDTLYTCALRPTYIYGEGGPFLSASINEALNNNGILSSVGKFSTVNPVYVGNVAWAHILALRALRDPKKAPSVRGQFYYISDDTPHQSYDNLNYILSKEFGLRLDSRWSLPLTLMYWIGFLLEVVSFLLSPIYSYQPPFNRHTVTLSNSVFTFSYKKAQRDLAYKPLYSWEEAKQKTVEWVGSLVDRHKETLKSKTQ
observation-type: IC50

Using the record for `C[C@@H](c1ccc(-c2ccn(C)c(=O)c2)cc1)N1CC[C@](CC(C)(C)O)(c2ccccc2)OC1=O` , report its IC50.
> 10 µM

---

Molecular target: Nuclear receptor subfamily 1 group I member 2 (Homo sapiens)
Sequence (O75469 whole entry): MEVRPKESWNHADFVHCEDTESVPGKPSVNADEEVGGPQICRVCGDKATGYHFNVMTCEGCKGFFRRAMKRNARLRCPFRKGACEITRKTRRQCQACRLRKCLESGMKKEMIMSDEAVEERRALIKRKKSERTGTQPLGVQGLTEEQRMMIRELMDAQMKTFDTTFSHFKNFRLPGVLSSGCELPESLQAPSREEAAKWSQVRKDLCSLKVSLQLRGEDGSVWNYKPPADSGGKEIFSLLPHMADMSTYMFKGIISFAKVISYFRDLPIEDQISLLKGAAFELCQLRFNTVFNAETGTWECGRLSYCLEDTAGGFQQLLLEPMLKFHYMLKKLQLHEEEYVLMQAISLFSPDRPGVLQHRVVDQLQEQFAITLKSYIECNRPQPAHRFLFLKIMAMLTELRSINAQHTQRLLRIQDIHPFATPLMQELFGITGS
Assay: Inhibition of PXR (unknown origin)
pEC50: −log10 of the molar value.
observation-type: pEC50

Using the record for `C[C@@H](c1ccc(-c2ccn(C)c(=O)c2)cc1)N1CC[C@](CC(C)(C)O)(c2ccccc2)OC1=O` , report its pEC50.
< 5.00

---

experiment: Half life in rat liver microsomes; type: ADME, microsome
observation-type: half-life (min)

C[C@@H](c1ccc(Br)cc1)N1CC[C@](CC(C)(C)C#N)(c2ccc(F)cc2)OC1=O    20.3
Cc1cc(-c2ccc([C@H](C)N3CC[C@](CCCO)(c4ccccc4)OC3=O)cc2)cc(C)n1    13
C[C@@H](c1ccc(OC(F)F)cc1)N1CC[C@](CCC(N)=O)(c2ccccc2)OC1=O    50.6
Cc1cnc(-c2ccc([C@H](C)N3CC[C@](CC(C)(C)O)(c4ccccc4)OC3=O)cc2)cn1    16

(1) C[C@@H](c1ccc(Br)cc1)N1CC[C@](CCCNS(C)(=O)=O)(c2ccc(F)cc2)OC1=O
(2) C[C@@H](c1ccc(Br)cc1)N1CC[C@](CC(C)(C)O)(c2ccc(F)cc2)OC1=O
(3) C[C@@H](c1ccc(Br)cc1)N1CC[C@](CCO)(c2ccc(F)cc2)OC1=O
(4) Cc1ccc([C@H](C)N2CC[C@](CCC(N)=O)(c3ccc(F)cc3)OC2=O)cc1
(5) C[C@@H](c1ccc(Br)cc1)N1CC[C@](CCC(N)=O)(c2ccc(F)cc2)OC1=O
Ascending by half-life, please. Reply: labels, ordered per the request.
4, 1, 3, 5, 2
(4: 7.1 min, 1: 11.4 min, 3: 25 min, 5: 36.1 min, 2: 53 min)
